Tested on: MS2 coat protein
EXPERIMENT_DESCRIPTION: apparent KD of MS2 coat protein; designed switch direction (-1 OFF switch, 1 ON switch): -1; higher = weaker reporter binding
TEST_SETTINGS: Eterna round: R95; input ligand: microRNA oligo, concentration not stated
Label Condition met when apparent KD of MS2 coat protein is at or above 20 nM; anything below gets Condition not met.

Here are 2 sequences together with their reported answers.
AAUAACAGAGGAUAUACUAUUUUAUGUGUUUGUUAUUUUAAACAUGAGGAUCACCCAUGUAGAAGGCUGAGUAA [JMF 29] (puzzle: Exclusion 2)    Condition met
GAGGUGUUAGGAUAUCGGAGAUGGAGACCGACGGGAUGAGCCGAGAAGGAACAUGAGGAUCACCCAUGUAGGUG [JR_Exclu4_Sub033] (puzzle: Exclusion 4)    Condition met

Quick check: does GUAUAACUACACGGGCUCAACAUGAGGAUCACCCAUGUCAUAUACGCAAGCUUUUUGCUUGUCUUAUCAGGCCGUGA [Ceatxe] (puzzle: Sensor v3, turn-off variant 1) have apparent KD of MS2 coat protein greater than or equal to 20 nM?
Condition not met

Quick check: does UAUAAGGUAGGAUAUACGAAUAAAUAGGGUAGAAUAAUAACACAUGAGGAUCACCCAUGUAGAAGGACCAAUAG [Mat - Exclusion 2 - Mod of my Tesla design - D27] (puzzle: Exclusion 2) have apparent KD of MS2 coat protein greater than or equal to 20 nM?
Condition met
